- Measurement description: qHTS of pediatric cancer cell lines to identify multiple opportunities for drug repurposing: Confirmatory screen for Rh30 cells (AID 1347126); also: nearly all actives have a fitted effect of over 55% in size
- Run conditions: Rh30 rhabdomyosarcoma cell viability; series mostly up to 45.9 µM
Inconclusive results are not listed. Active and inactive are the calls of the source. Calls follow the shape of the dose curve; as a rule, active = well fitted cell-killing curve with a large enough effect; inconclusive = small, poorly fitted or top-dose-only effect, or effect the other way; inactive = no such curve, though single readings can be large or run the other way.
Labels: active, inactive

- Query smiles: "O=C(C=Cc1ccc(CN(CCO)CCc2c[nH]c3ccccc23)cc1)NO"
  Class label: "active"
- Query smiles: "CCc1cc(C(C)=NOCc2ccc(C3CCCCC3)c(C(F)(F)F)c2)ccc1CN1CC(C(=O)O)C1"
  Class label: "inactive"
- Query smiles: "Cc1ccc([N+](=O)[O-])cc1S(=O)(=O)N(C)N=Cc1cnc2ccc(Br)cn12"
  Class label: "active"
- Query smiles: "FC(F)c1nc2ccccc2n1-c1nc(N2CCOCC2)nc(N2CCOCC2)n1"
  Class label: "active"
- Query smiles: "CC(=O)O[C@H]1C[C@@H]2CC[C@H]3[C@H]4C[C@H]([N+]5(C)CCCCC5)[C@@H](OC(C)=O)[C@@]4(C)CC[C@@H]3[C@@]2(C)C[C@H]1N1CCCCC1"
  Class label: "active"
- Query smiles: "CN(C)c1ccc(C(=O)NCCCCCCC(=O)NO)cc1"
  Class label: "active"
- Query smiles: "CC(C)(N)c1ccc(-c2nc3ccccc3nc2-c2ccccc2)cc1"
  Class label: "inactive"
- Query smiles: "CC(=O)N1CCN(c2ccc(OCc3nn(C)c(C)c3-c3cccc4c(CCCOc5cccc6ccccc56)c(C(=O)O)n(Cc5cccnc5)c34)cc2)CC1"
  Class label: "inactive"
- Query smiles: "COc1cccc2c1C(=O)c1c(O)c3c(c(O)c1C2=O)C[C@@](O)(C(C)=O)C[C@H]3O[C@H]1C[C@H](N)[C@H](O)[C@H](C)O1"
  Class label: "inactive"
- Query smiles: "COc1cc2ncnc(Nc3cccc(Br)c3)c2cc1OC"
  Class label: "active"
- Query smiles: "COC1=C2C[C@@H](C)C[C@H](OC)[C@@H](O)[C@@H](C)C=C(C)[C@H](OC(N)=O)[C@@H](OC)C=CC=C(C)C(=O)NC(=CC1=O)C2=O"
  Class label: "active"
- Query smiles: "CN(CC(=O)N(Cc1ccc(C2CCCCC2)cc1)c1ccc(C(=O)O)c(O)c1)S(=O)(=O)c1c(F)c(F)c(F)c(F)c1F"
  Class label: "inactive"
- Query smiles: "CCN(CC)Cc1ccc2cc(COC(=O)Nc3ccc(C(=O)NO)cc3)ccc2c1"
  Class label: "inactive"
- Query smiles: "C[C@@H](Oc1ccc2[nH]nc(C=Cc3cnn(CCO)c3)c2c1)c1c(Cl)cncc1Cl"
  Class label: "active"
